B1: CPEB3 Ribozyme (parent)
chain: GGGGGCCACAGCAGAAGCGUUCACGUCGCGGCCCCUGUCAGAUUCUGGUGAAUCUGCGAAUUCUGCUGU

# Variants of: B1
# protocol summary: self-cleavage, relative activity (ratio to wild type); higher = more cleavage; co-transcriptional
Record Y whenever self-cleavage is at 0.7 or higher; record N when lower.

Examples with answers:
mutation key | assigned category
A42C U43C | Y
A60G U69C | Y
G25A C66G | N

Turning now to a further variant:
# input In plain terms: is recorded self-cleavage at least 0.7 for U43G G56U ?
# output N
